Origin of values: ChEMBL document CHEMBL4270541

Here the recorded hemolysis at 3 h, 200 ug/ml is given for each entry.
- Assay summary: Hemolytic activity against human erythrocytes assessed as hemolysis at 200 ug/ml after 3 hrs by spectrophotometric analysis relative to control
- Format: ADME, cell-based, Erythrocyte
- Cond: read-out: Activity
Reported property: hemolysis at 3 h, 200 ug/ml

{"Chemical string": "CC1(C)O[C@H]2[C@@H](O1)[C@@H](CNC1=C(Br)C(=O)c3ccccc3C1=O)O[C@@H]1OC(C)(C)O[C@@H]12", "Result": "10.1 to 14.4%"}
{"Chemical string": "COC(=O)c1c(C)nc(C)c2c1C(=O)C(Cl)=C(NC[C@H]1O[C@@H](OC)[C@@H]3OC(C)(C)O[C@@H]31)C2=O", "Result": "< 10%"}
{"Chemical string": "NC1=CC(=O)c2ccccc2C1=O", "Result": "10.1 to 14.4%"}
{"Chemical string": "CC1(C)O[C@H]2O[C@H](CNC3=CC(=O)c4ccccc4C3=O)[C@H](O)[C@H]2O1", "Result": "< 10%"}
